Values compiled from patent US20260151494A1.

molecular target: T1, apical domain of human CD71 (human, UniProt P02786 189-383, limits assumed); assay: primary ELISA, RLU over HSA
T1 construct: domain: apical domain; Screen 4 panned on human apical domains, the ELISA text says only 'apical domain'
T1 sequence (P02786 189-383 limits assumed): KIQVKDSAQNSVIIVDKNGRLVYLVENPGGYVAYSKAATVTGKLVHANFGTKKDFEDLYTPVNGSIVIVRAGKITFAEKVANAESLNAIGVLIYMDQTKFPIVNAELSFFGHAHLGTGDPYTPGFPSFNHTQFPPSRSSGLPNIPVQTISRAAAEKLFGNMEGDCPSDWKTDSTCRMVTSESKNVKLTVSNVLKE
Below, each of the binders is paired with its reported Apical domain:HSA value.
Quick one: just the number, no unit, thanks!

The following binders have reported results that may help.
INSERT INTO measurements (binder, measured_quantity, numeric_value) VALUES
  ('CD71-binding FN3 domain of SEQ ID NO: 488 (designed binder) MLPAPKNLVVSRVTEDSARLSWTAPDAAFDSFIIQYGEYLRWGEAIVLTVPGSERSYDLTGLKPGTEYQVEIYGVKGGPLSKPLSAIFTT', 'Apical domain:HSA', 103),
  ('CD71-binding FN3 domain of SEQ ID NO: 536 (designed binder) MLPAPKNLVVSRVTEDSARLSWTAPDAAFDSFDIGYTETVSFGEAIVLTVPGSERSYDLTGLKPGTEYIVKILGVKGGFASFPLSAIFTT', 'Apical domain:HSA', 154),
  ('CD71-binding FN3 domain of SEQ ID NO: 503 (designed binder) MLPAPKNLVVSRVTEDSARLSWTAPDAAFDSFEISYFETSWHGEAIVLTVLGSERSYDLTGLKPGTEYRVYIGGVKGGSWSQPLSAIFTT', 'Apical domain:HSA', 145);

The recorded Apical domain:HSA for entry CD71-binding FN3 domain of SEQ ID NO: 474 (designed binder) MLPAPKNLVVSRVTEDSARLSWTAPDAAFDSFFIGYLEPQPPGEAIGLAVPGSERSYDLTGLKPGTEYNVTIQGVKGGFPSEPLIADFTT equals 279
